Assay: Clinical test in humans, single 30-min i.v. infusion, plasma PK
Format: in vivo
Settings: human, in vivo, iv, single 30-min i.v. infusion 25 μg/kg, mean
Ends that are not written are not given here.

>  <substance>
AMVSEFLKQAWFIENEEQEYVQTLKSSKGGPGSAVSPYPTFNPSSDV-NH2 [Peptide 1]

>  <resultUnit>
ng·h/mL

>  <AUC(0-inf)>
211

$$$$

* * *

Test: Clinical test in humans, single 30-min i.v. infusion, plasma PK
Assay type: in vivo
Conditions: human, in vivo, iv, 200 ug/kg, single 30-min i.v. infusion 200 μg/kg, GM
Method: A total of 8 healthy subjects were included in each group. […] In these groups, 6 subjects received the active treatment (i.e. a single Peptide 1 30-min intravenous (i.v.) infusion corresponding to the above doses) and 2 received the placebo. In order to prevent any anticipated unblinding, the subjects under active treatment were recorded by the bioanalytical laboratory. […]
Ends that are not written are not given here.
resultType: clearance (mL/min/kg)

>  <substance>
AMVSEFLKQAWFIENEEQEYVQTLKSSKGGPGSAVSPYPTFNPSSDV-NH2 [Peptide 1]

>  <resultUnit>
mL/min/kg

>  <measuredResult>
1.5

$$$$
